- MEASURED_ON: Endochitinase A1 (Aspergillus fumigatus, UniProt Q873Y0)
- Sequence (Q873Y0 whole entry): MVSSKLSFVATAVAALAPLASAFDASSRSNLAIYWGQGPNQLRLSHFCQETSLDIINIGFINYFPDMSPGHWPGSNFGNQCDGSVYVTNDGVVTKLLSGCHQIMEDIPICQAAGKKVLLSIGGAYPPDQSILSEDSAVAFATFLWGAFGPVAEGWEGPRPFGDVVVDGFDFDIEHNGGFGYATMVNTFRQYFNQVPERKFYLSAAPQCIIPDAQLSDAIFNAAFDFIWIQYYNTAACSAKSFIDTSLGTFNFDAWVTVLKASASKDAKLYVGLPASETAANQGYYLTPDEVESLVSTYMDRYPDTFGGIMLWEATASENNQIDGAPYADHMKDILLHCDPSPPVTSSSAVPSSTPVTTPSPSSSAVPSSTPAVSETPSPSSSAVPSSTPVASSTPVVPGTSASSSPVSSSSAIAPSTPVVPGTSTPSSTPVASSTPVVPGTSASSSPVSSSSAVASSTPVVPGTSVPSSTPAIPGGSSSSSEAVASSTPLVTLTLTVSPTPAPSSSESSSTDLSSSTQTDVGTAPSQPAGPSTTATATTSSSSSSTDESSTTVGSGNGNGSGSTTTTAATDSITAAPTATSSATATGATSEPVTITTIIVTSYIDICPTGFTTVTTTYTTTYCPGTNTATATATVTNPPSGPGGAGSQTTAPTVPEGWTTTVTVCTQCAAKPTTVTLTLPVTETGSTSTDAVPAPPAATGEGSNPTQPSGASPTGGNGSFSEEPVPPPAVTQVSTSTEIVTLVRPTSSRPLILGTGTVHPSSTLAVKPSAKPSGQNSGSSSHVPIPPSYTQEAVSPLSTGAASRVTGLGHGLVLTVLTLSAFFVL
- ASSAY_INFO: Enzyme Inhibition Assay
- DETAILS: pH 5.5; 37 °C
Starred links: 1 amine or outer side, 2 acyl side, 3 side chain; linkers in the order of their positions; H or OH if unused. Non-standard residues stand in square brackets, D forms with d. Residues, ends and D or L forms follow the SMILES beside them. Groups on a side chain read outwards from the residue. βAsp = O=C(O)[C@H](CC(=O)[*:2])N[*:1]; NMeF = CN[C@@H](Cc1ccccc1)C(=O)O; CO = O=C([*:1])[*:2]
READOUT_NAME: IC50

{"columns": ["COMPOUND", "MEASURED_ON", "READOUT_NAME", "VALUE_REPORTED"],
 "data": [
  ["CNC(=O)NC(N)=Nc1ccccc1", "Endochitinase A1 (Aspergillus fumigatus, UniProt Q873Y0)", "IC50", "112 µM"],
  ["CCCN=C(N)NC(=O)NC", "Endochitinase A1 (Aspergillus fumigatus, UniProt Q873Y0)", "IC50", "62 µM"],
  ["CCCCNC(=N)NC(=O)NC", "Endochitinase A1 (Aspergillus fumigatus, UniProt Q873Y0)", "IC50", "38 µM"]
]}

For CNC(=O)NC(=N)NCCC[C@@H]1NC(=O)[C@@H](C)NC(=O)C[C@@H](C(=O)O)NC(=O)C[C@@H](C(=O)O)NC(=O)[C@H](Cc2ccccc2)N(C)C1=O (cyclo([NMeF][βAsp][βAsp][dA]R([CO-NHMe]))) , write its IC50.
> 3800 µM

For CCN=C(N)NC(=O)NC , write its IC50.
310 µM

For [H]/N=C(\NC)NC(=O)NC , write its IC50.
79 µM

For CNC(=O)NC(=N)NC1CCCCC1 , write its IC50.
42 µM

For CNC(=O)NC(N)=NCc1ccccc1 , write its IC50.
299 µM
